I'd be grateful if you could share measured PBM binding z-score for these entries.
Test system: PPARg homodimer (NR concentration 180 nM)
Assay: PBM binding z-score (relative to random genomic background probes); higher = stronger binding; sequences stand for … in GC…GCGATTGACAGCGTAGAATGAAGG
Numbers only.

Below are worked cases with known answers.
Sequence Record	PBM binding z-score
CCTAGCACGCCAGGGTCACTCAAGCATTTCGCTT	0.342
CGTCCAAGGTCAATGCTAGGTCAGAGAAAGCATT	4.96
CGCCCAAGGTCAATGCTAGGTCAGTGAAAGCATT	5.9
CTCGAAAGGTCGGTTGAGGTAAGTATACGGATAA	0.476
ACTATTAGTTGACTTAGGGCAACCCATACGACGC	0.67

Report PBM binding z-score for every entry below.
1. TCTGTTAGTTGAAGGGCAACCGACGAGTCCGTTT
2. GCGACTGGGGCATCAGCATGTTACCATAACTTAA
3. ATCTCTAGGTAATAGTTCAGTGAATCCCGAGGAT
4. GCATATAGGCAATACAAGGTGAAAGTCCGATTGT
5. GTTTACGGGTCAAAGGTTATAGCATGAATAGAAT

[A]
1. 1.19
2. -0.0822
3. 1.07
4. -0.222
5. 2.36
